Target: HLA-B*08:01
Experiment: IEDB peptide-MHC binding, purified MHC/competitive/radioactivity; filed as Kd, often an IC50 or EC50 that approximates it; bounds were set here for any values at or beyond the usual limits of such assays
Conditions: source organism: Hepacivirus hominis
pKd: −log10 of the molar value.

- MONOMER_SEQUENCE: "RDWAHNSL"
  pKd: "≤ 4.08"

----------
Target: HLA-B*57:01
Assay: IEDB peptide-MHC binding, purified MHC/competitive/radioactivity; filed as Kd, often an IC50 or EC50 that approximates it; bounds were set here for any values at or beyond the usual limits of such assays
Settings: source organism: Dengue virus 3 Martinique/1243/1999

- MONOMER_SEQUENCE: "AVFTEENQW"
  Kd / nM: 49.5

----------
Molecular target: HLA-B*18:01
Test: IEDB peptide-MHC binding, purified MHC/direct/fluorescence; filed as Kd, often an IC50 or EC50 that approximates it; bounds were set here for any values at or beyond the usual limits of such assays
Conditions: source organism: Yersinia enterocolitica subsp. enterocolitica 8081
pKd: −log10 of the molar value.

- MONOMER_SEQUENCE: "YIYDGKVNY"
  pKd: "≤ 4.70"

----------
Target: HLA-B*08:01
Assay: IEDB peptide-MHC binding, purified MHC/competitive/fluorescence; bounds were set here for any values at or beyond the usual limits of such assays
Details: source organism: Zaire ebolavirus
Listed next: entries and their corresponding IC50.

- MONOMER_SEQUENCE: "ERLAKLTEA"
  IC50: "≥ 106 µM"
- MONOMER_SEQUENCE: "FLLQRWGGT"
  IC50: "6.33 µM"
- MONOMER_SEQUENCE: "GFPRCRYVH"
  IC50: "12.3 µM"
- MONOMER_SEQUENCE: "FLLIHQGMH"
  IC50: "≥ 230 µM"

----------
Target: HLA-A*31:01
Assay: IEDB peptide-MHC binding, purified MHC/direct/fluorescence; filed as Kd, often an IC50 or EC50 that approximates it; bounds were set here for any values at or beyond the usual limits of such assays
Details: source organism: Pseudomonas aeruginosa UCBPP-PA14
pKd: −log10 of the molar value.

- MONOMER_SEQUENCE: "ASDDLEHWQ"
  TARGET_OR_SYSTEM: "HLA-A*31:01"
  pKd: "≤ 4.70"

----------
Molecular target: HLA-A*02:19
Assay: IEDB peptide-MHC binding, purified MHC/direct/fluorescence; filed as Kd, often an IC50 or EC50 that approximates it; bounds were set here for any values at or beyond the usual limits of such assays
Conditions: source organism: Convict Creek 107 virus
pKd: −log10 of the molar value.

- MONOMER_SEQUENCE: "WFLYVSQQI"
  pKd: "≤ 4.70"

----------
Target: HLA-A*26:01
Test: IEDB peptide-MHC binding, purified MHC/competitive/fluorescence; filed as Kd, often an IC50 or EC50 that approximates it; bounds were set here for any values at or beyond the usual limits of such assays
Conditions: source organism: Orthohantavirus andesense
pKd: −log10 of the molar value.
READOUT_NAME: pKd

- MONOMER_SEQUENCE: "STGKSIKFK"
  READOUT_NAME: "pKd"
  VALUE_OBSERVED: "≤ 4.70"
- MONOMER_SEQUENCE: "RWASGVSEI"
  READOUT_NAME: "pKd"
  VALUE_OBSERVED: "≤ 4.70"

----------
Target: HLA-A*69:01
Assay: IEDB peptide-MHC binding, purified MHC/direct/fluorescence; filed as Kd, often an IC50 or EC50 that approximates it; bounds were set here for any values at or beyond the usual limits of such assays
Conditions: source organism: Camelpox virus CMS
READOUT_NAME: Kd

- MONOMER_SEQUENCE: "RVFDKADGK"
  VALUE_OBSERVED: "≥ 20 µM"

----------
Target: HLA-B*57:01
Experiment: IEDB peptide-MHC binding, purified MHC/competitive/radioactivity; filed as Kd, often an IC50 or EC50 that approximates it; bounds were set here for any values at or beyond the usual limits of such assays
Conditions: source organism: Dengue virus 4 Philippines/H241/1956
pKd: −log10 of the molar value.

- MONOMER_SEQUENCE: "KTKLTDWDF"
  pKd: 6.88

----------
Target: HLA-A*01:01
Experiment: IEDB peptide-MHC binding, purified MHC/direct/fluorescence; filed as Kd, often an IC50 or EC50 that approximates it; bounds were set here for any values at or beyond the usual limits of such assays
Settings: source organism: Escherichia coli O157:H7
Listed next: entries and their corresponding Kd.

- MONOMER_SEQUENCE: "ITIPIGLYL"
  TARGET_OR_SYSTEM: "HLA-A*01:01"
  Kd: "≥ 20 µM"
- MONOMER_SEQUENCE: "RPPRRGDKF"
  TARGET_OR_SYSTEM: "HLA-A*01:01"
  Kd: "≥ 20 µM"
- MONOMER_SEQUENCE: "RGRGVAIHR"
  TARGET_OR_SYSTEM: "HLA-A*01:01"
  Kd: "≥ 20 µM"

----------
Biological target: HLA-B*40:01
Assay: IEDB peptide-MHC binding, purified MHC/competitive/fluorescence; filed as Kd, often an IC50 or EC50 that approximates it; bounds were set here for any values at or beyond the usual limits of such assays
Conditions: source organism: Salmonella enterica subsp. enterica serovar Typhi

- MONOMER_SEQUENCE: "LEVSFGSVI"
  Kd, nM: 3.5

----------
Target: HLA-A*01:01
Assay: IEDB peptide-MHC binding, purified MHC/competitive/radioactivity; filed as Kd, often an IC50 or EC50 that approximates it; bounds were set here for any values at or beyond the usual limits of such assays
Settings: source organism: Hepacivirus hominis
pKd: −log10 of the molar value.
READOUT_NAME: pKd

- MONOMER_SEQUENCE: "RDWAHNSL"
  READOUT_NAME: "pKd"
  VALUE_OBSERVED: 5.74

----------
Target: HLA-A*69:01
Assay: IEDB peptide-MHC binding, purified MHC/direct/fluorescence; filed as Kd, often an IC50 or EC50 that approximates it; bounds were set here for any values at or beyond the usual limits of such assays
Details: source organism: Mycobacterium tuberculosis variant bovis
pKd: −log10 of the molar value.

- MONOMER_SEQUENCE: "PMQQLTQPL"
  pKd: "≤ 4.70"

----------
Biological target: HLA-B*57:01
Experiment: IEDB peptide-MHC binding, purified MHC/competitive/fluorescence; filed as Kd, often an IC50 or EC50 that approximates it; bounds were set here for any values at or beyond the usual limits of such assays
Conditions: source organism: Rickettsia sibirica 246
pKd: −log10 of the molar value.

- MONOMER_SEQUENCE: "SVANIDRIK"
  pKd: "≤ 4.70"

----------
Biological target: HLA-B*15:01
Assay: IEDB peptide-MHC binding, purified MHC/direct/fluorescence; filed as Kd, often an IC50 or EC50 that approximates it; bounds were set here for any values at or beyond the usual limits of such assays
Conditions: source organism: Rickettsia sibirica 246
READOUT_NAME: Kd

- MONOMER_SEQUENCE: "FADSDNIAM"
  TARGET_OR_SYSTEM: "HLA-B*15:01"
  VALUE_OBSERVED: "≥ 20 µM"

----------
Molecular target: HLA-A*29:02
Experiment: IEDB peptide-MHC binding, purified MHC/direct/fluorescence; filed as Kd, often an IC50 or EC50 that approximates it; bounds were set here for any values at or beyond the usual limits of such assays
Settings: source organism: Zaire ebolavirus
pKd: −log10 of the molar value.

- MONOMER_SEQUENCE: "LSDAIFDDL"
  pKd: "≤ 4.70"

----------
Biological target: HLA-B*15:17
Test: IEDB peptide-MHC binding, purified MHC/direct/fluorescence; filed as Kd, often an IC50 or EC50 that approximates it; bounds were set here for any values at or beyond the usual limits of such assays
Settings: source organism: Bacillus cereus H3081.97
READOUT_NAME: Kd

- MONOMER_SEQUENCE: "YSTVRDLFL"
  TARGET_OR_SYSTEM: "HLA-B*15:17"
  READOUT_NAME: "Kd"
  VALUE_OBSERVED: "≤ 1 nM"

----------
Target: HLA-A*24:03
Assay: IEDB peptide-MHC binding, purified MHC/direct/fluorescence; filed as Kd, often an IC50 or EC50 that approximates it; bounds were set here for any values at or beyond the usual limits of such assays
Conditions: source organism: Vibrio parahaemolyticus
pKd: −log10 of the molar value.
READOUT_NAME: pKd

- MONOMER_SEQUENCE: "MSSAMSMMH"
  VALUE_OBSERVED: 5.29

----------
Biological target: HLA-B*15:01
Assay: IEDB peptide-MHC binding, purified MHC/direct/fluorescence; filed as Kd, often an IC50 or EC50 that approximates it; bounds were set here for any values at or beyond the usual limits of such assays
Conditions: source organism: Camelpox virus M-96
pKd: −log10 of the molar value.

- MONOMER_SEQUENCE: "VMCIQMKYV"
  pKd: "≤ 4.70"
